B1: RHOBTB3 (parent)
chain: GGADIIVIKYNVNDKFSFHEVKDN

# Variants of: B1
# assay.comment: protein stability index of a GFP-peptide fusion (GPS, HEK-293T) (PSI 1-6); higher = more stable;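 further: lentivirally expressed fusions sorted by FACS into six bins by GFP to DsRed ratio, PSI derived from sequencing read proportions per bin multiplied by bin number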
# run.parameters: c terminus: a fixed tail appended
assay.endpoint: protein stability index
Numbers only.

For orientation, consider the following solved cases.
>  <mutant.label>
H19S

>  <protein stability index>
2.72

$$$$
>  <mutant.label>
Y10N

>  <protein stability index>
2.03

$$$$
>  <mutant.label>
E20Y

>  <protein stability index>
2.26

$$$$
>  <mutant.label>
V21Y

>  <protein stability index>
2.98

$$$$
>  <mutant.label>
D4S

>  <protein stability index>
2.66

$$$$
>  <mutant.label>
N11D

>  <protein stability index>
2.29

$$$$
>  <mutant.label>
H19R

>  <protein stability index>
2.82

$$$$
>  <mutant.label>
G1H

>  <protein stability index>
2.3

$$$$
>  <mutant.label>
N11P

>  <protein stability index>
3.2

$$$$
>  <mutant.label>
A3H

>  <protein stability index>
3.04

$$$$

// batch mode: one protein stability index value per listed entry
1. G1Q
2. E20W
3. D14W
4. K22L
5. N24K

## Result
[2.37, 2.67, 2.63, 2.43, 2.73]

// batch mode: one protein stability index value per listed entry
1. Y10A
2. D4P
3. H19N
4. K22R
5. S17Y
6. G1N

## Result
1: 1.27; 2: 3.07; 3: 3.79; 4: 2.61; 5: 1.63; 6: 2.96

// batch mode: one protein stability index value per listed entry
1. I6T
2. S17P
3. N24I

## Result
1: 2.45; 2: 2.54; 3: 2.21

The values you see were collected from the supplement of paper PMC10567573.
